These measurements were taken from patent US20240391954A1.

Here, each record is paired with measured Emax data.
TARGET_OR_TEST_SYSTEM: human MC4R (Homo sapiens, UniProt P32245)
Construct: host or cells: HEK-293 cells stably expressing the GScAMP22F split-luciferase cAMP sensor and hMC4R, G418 selection
Sequence (P32245 whole entry): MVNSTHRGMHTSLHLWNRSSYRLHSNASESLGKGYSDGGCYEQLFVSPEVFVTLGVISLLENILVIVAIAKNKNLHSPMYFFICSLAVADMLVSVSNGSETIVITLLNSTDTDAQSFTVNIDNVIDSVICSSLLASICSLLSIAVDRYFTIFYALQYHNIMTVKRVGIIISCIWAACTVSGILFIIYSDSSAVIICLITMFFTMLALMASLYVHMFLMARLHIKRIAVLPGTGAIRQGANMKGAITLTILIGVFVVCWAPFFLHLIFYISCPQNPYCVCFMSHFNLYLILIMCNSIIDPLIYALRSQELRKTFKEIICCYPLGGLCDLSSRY
PROTOCOL_TEXT: split-luciferase cAMP sensor assay, agonist mode (measurement window 1), hMC4R
Format: cell-based
PROTOCOL_CONDITIONS: agonist mode, hMC4R stable cell line; read-out: MC4R cAMP % max activation
Positions of bridges follow the written chain, without caps; N, C: chain ends. Non-standard residues stand in square brackets, D forms with d. Residues, ends and D or L forms follow the SMILES beside them. dPhe(4-NH2) = Nc1ccc(C[C@@H](N)C(=O)O)cc1; Phe(4-Br) = N[C@@H](Cc1ccc(Br)cc1)C(=O)O; dPhe(4-Br) = N[C@H](Cc1ccc(Br)cc1)C(=O)O; d2Nal = N[C@H](Cc1ccc2ccccc2c1)C(=O)O; Nle = CCCC[C@H](N)C(=O)O

>  <COMPOUND>
CC(=O)N[C@@H](CCCNC(=N)N)C(=O)N[C@H]1CSSC[C@@H](C(=O)N[C@@H](CCCCN)C(=O)N2CCC[C@H]2C(=O)N[C@H](C(N)=O)C(C)C)NC(=O)[C@@H](Cc2c[nH]c3ccccc23)NC(=O)[C@H](CCCNC(=N)N)NC(=O)[C@@H](Cc2ccc(Br)cc2)NC(=O)[C@H](CCCNC(=N)N)NC(=O)[C@@H](C)NC1=O [CTX-1216] (Ac-RC[dA]R[dPhe(4-Br)]R[dW]CKPV-NH2; disulfide 2-8 (inferred))

>  <Emax>
69%

$$$$
>  <COMPOUND>
CC(=O)N[C@@H](CCCNC(=N)N)C(=O)N[C@H]1CSSC[C@@H](C(N)=O)NC(=O)[C@H](Cc2c[nH]c3ccccc23)NC(=O)[C@H](CCCNC(=N)N)NC(=O)[C@H](Cc2ccc(Br)cc2)NC(=O)[C@H](CCCNC(=N)N)NC(=O)[C@@H](C)NC1=O [CTX-1212] (Ac-RC[dA]R[Phe(4-Br)]RWC-NH2; disulfide 2-8)

>  <Emax>
55%

$$$$
>  <COMPOUND>
CC(=O)N[C@@H](CCCNC(=N)N)C(=O)N[C@H]1CSSC[C@@H](C(N)=O)NC(=O)[C@@H](Cc2c[nH]c3ccccc23)NC(=O)[C@H](CCCNC(=N)N)NC(=O)[C@@H](Cc2ccc(Br)cc2)NC(=O)[C@@H]2CCCN2C(=O)[C@@H](C)NC1=O [CTX-1249] (Ac-RC[dA]P[dPhe(4-Br)]R[dW]C-NH2; disulfide 2-8)

>  <Emax>
22%

$$$$
>  <COMPOUND>
CC(=O)N[C@@H](CCCNC(=N)N)C(=O)N[C@H]1CSSC[C@@H](C(N)=O)NC(=O)[C@@H](Cc2ccc3ccccc3c2)NC(=O)[C@H](CCCNC(=N)N)NC(=O)[C@@H](Cc2ccc(Br)cc2)NC(=O)[C@H](CCCNC(=N)N)NC(=O)[C@@H](C)NC1=O [CTX-1254] (Ac-RC[dA]R[dPhe(4-Br)]R[d2Nal]C-NH2; disulfide 2-8)

>  <Emax>
22%

$$$$
>  <COMPOUND>
CC(=O)Nc1ccc(C[C@H]2NC(=O)[C@H](CCCNC(=N)N)NC(=O)[C@@H](C)NC(=O)[C@@H](NC(=O)[C@H](CCCNC(=N)N)NC(C)=O)CSSC[C@@H](C(N)=O)NC(=O)[C@@H](Cc3c[nH]c4ccccc34)NC(=O)[C@H](CCCNC(=N)N)NC2=O)cc1 [CTX-1245] (Ac-RC[dA]R[dPhe(4-NH2)](Ac)R[dW]C-NH2; disulfide 2-8)

>  <Emax>
34%

$$$$
>  <COMPOUND>
CCCC[C@H](NC(=O)[C@H](CCCNC(=N)N)NC(C)=O)C(=O)N[C@H]1CSSC[C@@H](C(N)=O)NC(=O)[C@@H](Cc2c[nH]c3ccccc23)NC(=O)[C@H](CCCNC(=N)N)NC(=O)[C@@H](Cc2ccc(Br)cc2)NC(=O)[C@H](CCCNC(=N)N)NC1=O [CTX-1613] (Ac-R[Nle]CR[dPhe(4-Br)]R[dW]C-NH2; disulfide 3-8 (inferred))

>  <Emax>
32%

$$$$
